# System under test: Recombinant human BACE-1 (Homo sapiens, UniProt P56817)
# Construct: purchased R&D Systems
# Sequence (P56817 46-501): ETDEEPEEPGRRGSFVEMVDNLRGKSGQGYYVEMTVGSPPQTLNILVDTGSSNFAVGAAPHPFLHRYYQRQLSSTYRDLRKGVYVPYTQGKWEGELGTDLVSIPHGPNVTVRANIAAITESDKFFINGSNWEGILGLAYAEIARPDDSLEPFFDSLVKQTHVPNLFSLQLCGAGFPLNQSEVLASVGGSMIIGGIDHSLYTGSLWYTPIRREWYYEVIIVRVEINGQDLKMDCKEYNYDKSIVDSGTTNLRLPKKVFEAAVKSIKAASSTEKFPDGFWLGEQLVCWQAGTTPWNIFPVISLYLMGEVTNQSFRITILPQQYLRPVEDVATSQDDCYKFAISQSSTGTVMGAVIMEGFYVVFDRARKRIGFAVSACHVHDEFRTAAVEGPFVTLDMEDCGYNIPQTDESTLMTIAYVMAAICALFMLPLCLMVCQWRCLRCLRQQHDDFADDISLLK
# Measurement notes: Assay of β-secretase-inhibiting activity;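 also: substrate is a peptide carrying biotin and europium cryptate, after the enzyme reaction, Streptavidin-XL665 is added and incubated 1 h at 30 °C before fluorescence reading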
# Format: biochemical
# Reported conditions: Recombinant human BACE-1 7.4 nM, substrate peptide 18 nM, pH 5.0, 30° C., 3 hours; Table 139; read-out: IC50
Quick reference for log10(IC50) among some compounds
Measurement name: log10(IC50) (log10 of the value in µM)

Structure notation | log10(IC50)
C#CCCOc1cnc(C(=O)Nc2cccc([C@]3(C)CCSC(N)=N3)c2)cn1 | -0.89
CC(C)COc1cnc(C(=O)Nc2cccc([C@]3(C)CCSC(N)=N3)c2)cn1 | -1.05
C[C@@]1(c2cc(NC(=O)CSc3nccc(O)n3)ccc2F)CCSC(N)=N1 | 0.83
CSc1ccc(C(=O)Nc2ccc(F)c([C@]3(C)CCSC(N)=N3)c2)s1 | -0.85
Cc1nc(C)c(C(=O)Nc2ccc(F)c([C@]3(C)CCSC(N)=N3)c2)s1 | -0.80
C[C@@]1(c2cccc(NC(=O)c3cnc(OCC(F)F)cn3)c2)CCSC(N)=N1 | -1.10
COCCOc1ccc(C(=O)Nc2ccc(F)c([C@]3(C)CCSC(N)=N3)c2)nc1 | -1.10
COc1nc(Nc2ccc(F)c([C@]3(C)CCSC(N)=N3)c2)nc(OC)n1 | 0.33
